- Target System: Acetylcholinesterase (Rattus norvegicus, UniProt P37136)
- Sequence (P37136 whole entry): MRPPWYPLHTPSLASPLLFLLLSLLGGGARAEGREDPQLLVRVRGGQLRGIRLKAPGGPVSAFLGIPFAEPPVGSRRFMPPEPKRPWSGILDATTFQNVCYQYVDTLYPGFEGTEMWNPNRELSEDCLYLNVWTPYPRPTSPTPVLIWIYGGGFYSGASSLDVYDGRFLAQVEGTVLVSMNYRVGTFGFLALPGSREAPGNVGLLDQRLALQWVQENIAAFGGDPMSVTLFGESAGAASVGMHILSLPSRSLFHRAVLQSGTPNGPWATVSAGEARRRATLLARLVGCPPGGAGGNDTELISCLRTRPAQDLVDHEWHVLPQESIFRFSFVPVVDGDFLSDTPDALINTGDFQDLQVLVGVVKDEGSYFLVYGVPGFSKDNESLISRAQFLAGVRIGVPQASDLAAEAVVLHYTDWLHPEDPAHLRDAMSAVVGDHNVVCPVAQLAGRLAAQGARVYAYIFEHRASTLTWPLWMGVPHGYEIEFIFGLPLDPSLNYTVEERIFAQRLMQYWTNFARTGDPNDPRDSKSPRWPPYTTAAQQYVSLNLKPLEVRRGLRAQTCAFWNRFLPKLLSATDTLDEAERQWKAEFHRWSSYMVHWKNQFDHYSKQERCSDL
- Test Name: Inhibition of rat cortex homogenate AChE using acetylthiocholine iodide as substrate after 15 mins in presence of BuChE inhibitor iso-OMPA by Ellman's method
Measurement Type: IC50 (nM)
Express it in nM; write the number only.

stdin: Any idea what its IC50 is? The compound is COc1ccccc1CN(C)CCCNC(=O)COc1ccc(-c2cc(=O)c3c(OC)c(OC)c(OC)cc3o2)cc1
stdout: 1580

stdin: Another: COc1ccccc1CN(C)CCNC(=O)COc1ccc(-c2cc(=O)c3c(OC)c(OC)c(OC)cc3o2)cc1
stdout: 1440

stdin: Another: CCN(CCNC(=O)COc1ccc(-c2cc(=O)c3c(O)c(OC)c(OC)cc3o2)cc1)Cc1ccccc1OC
stdout: 4980

stdin: Another: CCN(CCCNC(=O)COc1ccc(-c2cc(=O)c3c(O)c(OC)c(OC)cc3o2)cc1)Cc1ccccc1OC
stdout: 310

stdin: Another: COc1ccccc1CN(C)CCCCNC(=O)COc1ccc(-c2cc(=O)c3c(OC)c(OC)c(OC)cc3o2)cc1
stdout: 8320

stdin: Another: CCN(CCCCNC(=O)COc1ccc(-c2cc(=O)c3c(OC)c(OC)c(OC)cc3o2)cc1)Cc1ccccc1
stdout: 760
